- MEASUREMENT DESCRIPTION: Permeability evaluated by Caco-2 cell model
- Type: in vitro ADME
- CONDITION CONTEXT: human; 10 μM HC-1119, Caco-2 cell model; read-out: apparent permeability coefficient
ASSAY METRIC: Papp at 10 μM

Item [2H]C([2H])([2H])NC(=O)c1ccc(N2C(=S)N(c3ccc(C#N)c(C(F)(F)F)c3)C(=O)C2(C)C)cc1F has what recorded Papp at 10 μM?
11.4 to 13.6 ×10⁻⁶ cm/s

* * *

- MEASUREMENT DESCRIPTION: Clinical pharmacokinetic test of HC-1119 soft capsule
- Type: in vivo
- CONDITION CONTEXT: human, plasma, oral; HC-1119 80 mg, day 84; read-out: steady-state AUC on day 84
ASSAY METRIC: AUC at 84 day (µg·h/mL)
Numbers only, in µg·h/mL.

Item [2H]C([2H])([2H])NC(=O)c1ccc(N2C(=S)N(c3ccc(C#N)c(C(F)(F)F)c3)C(=O)C2(C)C)cc1F has what recorded AUC at 84 day?
480

Measured values drawn from patent US20210290553A1 for this set.
